biological target: rat mGlu2 receptor (Rattus norvegicus (Rat), UniProt P31421); assay: mGlu2 in vitro GIRK thallium flux assay; format: cell-based; conditions: mGlu2 EC50 (μM) (60 min), NAM; 60 min compound incubation; EC80 glutamate; HEK-293 GIRK cells
Sequence (P31421 19-872): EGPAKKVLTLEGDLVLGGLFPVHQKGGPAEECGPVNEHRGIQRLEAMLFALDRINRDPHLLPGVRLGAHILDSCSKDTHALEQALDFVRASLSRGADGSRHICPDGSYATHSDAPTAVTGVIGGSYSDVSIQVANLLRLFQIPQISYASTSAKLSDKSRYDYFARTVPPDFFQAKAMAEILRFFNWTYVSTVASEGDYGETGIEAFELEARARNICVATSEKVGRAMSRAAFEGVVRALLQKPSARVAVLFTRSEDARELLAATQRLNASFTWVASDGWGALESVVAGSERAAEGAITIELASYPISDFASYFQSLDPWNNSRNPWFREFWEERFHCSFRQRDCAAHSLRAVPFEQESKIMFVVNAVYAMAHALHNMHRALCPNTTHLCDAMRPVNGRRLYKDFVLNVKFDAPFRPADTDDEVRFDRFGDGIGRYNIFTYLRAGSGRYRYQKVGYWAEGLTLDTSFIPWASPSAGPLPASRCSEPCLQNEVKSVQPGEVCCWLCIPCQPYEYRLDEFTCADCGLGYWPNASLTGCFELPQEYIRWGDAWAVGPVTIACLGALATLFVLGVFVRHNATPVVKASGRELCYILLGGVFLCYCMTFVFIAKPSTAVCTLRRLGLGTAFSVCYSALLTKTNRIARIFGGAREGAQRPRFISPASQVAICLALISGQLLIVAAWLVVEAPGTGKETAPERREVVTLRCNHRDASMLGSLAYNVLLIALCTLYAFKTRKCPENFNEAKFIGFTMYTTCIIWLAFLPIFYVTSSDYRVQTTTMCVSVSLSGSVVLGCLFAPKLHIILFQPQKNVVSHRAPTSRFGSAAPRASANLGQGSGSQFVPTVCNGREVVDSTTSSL
MEASURE: EC50

> print(dat)
                               query.smiles   result
1  O=C(O)c1cccc(-c2cccc(-c3csc(/C=C/c4ccccc4)n3)c2)c1  > 10 µM
2  O=C(O)c1ccc(-c2cccc(-c3csc(-c4ccccc4)n3)c2)c(Cl)c1  > 30 µM
3  O=C(O)c1cc(-c2cccc(-c3csc(-c4ccccc4)n3)c2)cc([N+](=O)[O-])c1  > 10 µM
4  O=C(O)c1cccc(-c2cccc(-c3n[nH]c(-c4ccccc4)n3)c2)c1  > 30 µM

* * *

Below, each entry is listed alongside its reported EC50.
biological target: rat mGlu2 receptor (Rattus norvegicus (Rat), UniProt P31421); assay: mGlu2 in vitro GIRK thallium flux assay; format: cell-based; conditions: NAM; 2.5 min compound incubation; EC80 glutamate; HEK-293 GIRK cells; read-out: mGlu2 EC50 (μM) (2.5 min)
MEASURE: EC50

> print(dat)
                                   molecule   result
1  O=C1CC(c2ccnc(-c3ccccc3)c2)=Nc2ccc(C(F)(F)F)cc2N1  > 10 µM
2  O=C(O)c1cccc(-c2cccc(-c3nc(-c4ccccc4)n(-c4ccccc4)n3)c2)c1 [Example 49A]  > 10 µM
3  O=C(O)c1cccc(-c2cccc(-c3nc(-c4ccoc4)n(-c4ccccc4)n3)c2)c1  > 10 µM

* * *

Entries and their measured EC50 follow.
target: rat mGlu3 receptor (Rattus norvegicus (Rat), UniProt P31422); experiment: mGlu3 in vitro GIRK thallium flux assay; type: cell-based; details: NAM; 2.5 min compound incubation; EC80 glutamate; HEK-293 GIRK cells
Sequence (P31422 23-879): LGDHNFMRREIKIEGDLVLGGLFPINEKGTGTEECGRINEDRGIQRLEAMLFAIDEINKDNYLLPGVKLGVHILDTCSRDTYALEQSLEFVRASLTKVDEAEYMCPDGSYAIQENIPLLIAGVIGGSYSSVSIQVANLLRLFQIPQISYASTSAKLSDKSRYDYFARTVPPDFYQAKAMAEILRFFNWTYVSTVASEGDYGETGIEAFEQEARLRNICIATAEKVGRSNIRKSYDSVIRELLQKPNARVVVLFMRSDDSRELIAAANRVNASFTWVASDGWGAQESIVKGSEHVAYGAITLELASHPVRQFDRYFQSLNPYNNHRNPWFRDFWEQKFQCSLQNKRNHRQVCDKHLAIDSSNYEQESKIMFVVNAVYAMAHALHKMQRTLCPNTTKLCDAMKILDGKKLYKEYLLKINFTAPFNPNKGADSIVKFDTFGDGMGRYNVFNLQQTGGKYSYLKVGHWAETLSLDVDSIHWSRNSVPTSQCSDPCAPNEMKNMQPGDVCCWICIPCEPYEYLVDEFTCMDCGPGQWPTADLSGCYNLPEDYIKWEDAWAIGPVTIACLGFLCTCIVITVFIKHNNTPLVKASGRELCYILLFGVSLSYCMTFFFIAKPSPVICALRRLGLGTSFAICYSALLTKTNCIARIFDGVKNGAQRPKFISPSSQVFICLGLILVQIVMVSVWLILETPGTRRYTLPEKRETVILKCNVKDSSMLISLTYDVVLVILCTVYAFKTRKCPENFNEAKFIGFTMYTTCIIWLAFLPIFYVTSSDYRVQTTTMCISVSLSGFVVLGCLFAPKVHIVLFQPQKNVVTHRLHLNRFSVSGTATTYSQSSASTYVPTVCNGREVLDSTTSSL
MEASURE: EC50

> print(dat)
                               query.smiles  measure   result
1  Cc1noc(C)c1-c1cc(C(F)(F)F)nc(-c2cccc(-c3ccc(F)c(C(=O)O)c3)c2)n1     EC50  > 10 µM
2  COc1ccc(C(=O)O)cc1-c1cccc(-c2csc(-c3ccccc3)n2)c1     EC50  > 10 µM
3  O=C(O)c1cccc(-c2cccc(-c3coc(-c4ccccc4)n3)c2)c1     EC50  > 30 µM

* * *

Overview of reported EC50 across a group of molecules:
molecular target: rat mGlu3 receptor (Rattus norvegicus (Rat), UniProt P31422); experiment: mGlu3 in vitro GIRK thallium flux assay; assay type: cell-based; details: NAM; 2.5 min compound incubation; EC80 glutamate; HEK-293 GIRK cells
MEASURE: EC50 (µM)

> print(dat)
                               query.smiles  measure  measure.unit  reported.relation  recorded.number
1  Cc1cc2c(cc1C(F)(F)F)NC(=O)CC(c1cccc(Oc3ccccn3)c1)=N2     EC50            µM                  =             1.52
2  Cc1cc(-c2ccoc2)nc(-c2cccc(-c3ccc(F)c(C(=O)O)c3)c2)n1     EC50            µM                  =             0.28
3  Cc1ccccc1-c1cc(C(F)(F)F)nc(-c2cccc(-c3ccc(F)c(C(=O)O)c3)c2)n1     EC50            µM                  >               10
